assayed_system: EGFR(L858R/T790M) (Homo sapiens, UniProt P00533, L858R/T790M)
Construct: purchased from Carna (GST-a.a. 669-1210)
Sequence (P00533 669-1210 T790M/L858R): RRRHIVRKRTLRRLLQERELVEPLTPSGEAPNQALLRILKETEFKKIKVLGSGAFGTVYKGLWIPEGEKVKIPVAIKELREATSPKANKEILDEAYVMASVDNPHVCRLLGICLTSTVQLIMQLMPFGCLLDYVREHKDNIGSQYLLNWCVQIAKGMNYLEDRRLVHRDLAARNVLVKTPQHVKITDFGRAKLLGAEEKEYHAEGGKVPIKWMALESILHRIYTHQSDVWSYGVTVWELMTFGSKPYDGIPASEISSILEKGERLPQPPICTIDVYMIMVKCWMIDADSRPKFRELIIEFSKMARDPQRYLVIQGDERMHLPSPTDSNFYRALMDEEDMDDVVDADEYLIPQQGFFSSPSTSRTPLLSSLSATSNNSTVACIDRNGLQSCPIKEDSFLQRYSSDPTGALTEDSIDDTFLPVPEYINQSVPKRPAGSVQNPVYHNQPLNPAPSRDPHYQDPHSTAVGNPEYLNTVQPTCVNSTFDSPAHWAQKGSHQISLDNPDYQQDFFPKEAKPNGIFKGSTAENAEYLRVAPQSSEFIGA
test_protocol: EGFR biochemical assay (HTRF), IC50 determinations
run_conditions: EGFR (L858R/T790M) with 90 min pre-incubation; read-out: IC50 (μM) Column B
Description: All EGFR biochemical assays were carried out by HTRF method. […] The substrate peptide Biotin-TK-peptide was purchased from Cis-Bio. […] All reactions were carried out at room temperature in white ProxiPlate™ 384-well Plus plates (PerkinElmer) and were quenched with 5 μL of 0.2 M EDTA at 60 min. Five L of the detection reagents (2.5 ng PT66K and 0.05 μg SAXL per well) were added, the plates were incubated at room temperature for 1 h and then read in EnVision reader. […]
Reported values of IC50 for individual entries
experimental_endpoint: IC50

- compound: "Cc1cc(C(=O)Nc2nc3cccc(Cl)c3n2[C@@H]2CCCCN(C(=O)/C=C/CNC3CC3)C2)ccn1 [Example 17-190]"
  assayed_system: "EGFR(L858R/T790M) (Homo sapiens, UniProt P00533, L858R/T790M)"
  data_value: "< 0.001 µM"
- compound: "Cc1cccc2nc(NC(=O)c3ccnc(-c4ccccc4)c3)n([C@@H]3CCCCN(C(=O)/C=C/CN(C)C)C3)c12 [Example 17-76]"
  assayed_system: "EGFR(L858R/T790M) (Homo sapiens, UniProt P00533, L858R/T790M)"
  data_value: "< 0.001 µM"
- compound: "C=CC(=O)N1CCCC[C@@H](n2c(NC(=O)c3ccnc(C)c3)nc3cc(CN4CC(F)C4)cc(C)c32)C1 [Example 17-152]"
  assayed_system: "EGFR(L858R/T790M) (Homo sapiens, UniProt P00533, L858R/T790M)"
  data_value: "< 0.001 µM"

###

assayed_system: HEKn (EGFR WT) (Homo sapiens, UniProt P00533)
Sequence (P00533 25-1210): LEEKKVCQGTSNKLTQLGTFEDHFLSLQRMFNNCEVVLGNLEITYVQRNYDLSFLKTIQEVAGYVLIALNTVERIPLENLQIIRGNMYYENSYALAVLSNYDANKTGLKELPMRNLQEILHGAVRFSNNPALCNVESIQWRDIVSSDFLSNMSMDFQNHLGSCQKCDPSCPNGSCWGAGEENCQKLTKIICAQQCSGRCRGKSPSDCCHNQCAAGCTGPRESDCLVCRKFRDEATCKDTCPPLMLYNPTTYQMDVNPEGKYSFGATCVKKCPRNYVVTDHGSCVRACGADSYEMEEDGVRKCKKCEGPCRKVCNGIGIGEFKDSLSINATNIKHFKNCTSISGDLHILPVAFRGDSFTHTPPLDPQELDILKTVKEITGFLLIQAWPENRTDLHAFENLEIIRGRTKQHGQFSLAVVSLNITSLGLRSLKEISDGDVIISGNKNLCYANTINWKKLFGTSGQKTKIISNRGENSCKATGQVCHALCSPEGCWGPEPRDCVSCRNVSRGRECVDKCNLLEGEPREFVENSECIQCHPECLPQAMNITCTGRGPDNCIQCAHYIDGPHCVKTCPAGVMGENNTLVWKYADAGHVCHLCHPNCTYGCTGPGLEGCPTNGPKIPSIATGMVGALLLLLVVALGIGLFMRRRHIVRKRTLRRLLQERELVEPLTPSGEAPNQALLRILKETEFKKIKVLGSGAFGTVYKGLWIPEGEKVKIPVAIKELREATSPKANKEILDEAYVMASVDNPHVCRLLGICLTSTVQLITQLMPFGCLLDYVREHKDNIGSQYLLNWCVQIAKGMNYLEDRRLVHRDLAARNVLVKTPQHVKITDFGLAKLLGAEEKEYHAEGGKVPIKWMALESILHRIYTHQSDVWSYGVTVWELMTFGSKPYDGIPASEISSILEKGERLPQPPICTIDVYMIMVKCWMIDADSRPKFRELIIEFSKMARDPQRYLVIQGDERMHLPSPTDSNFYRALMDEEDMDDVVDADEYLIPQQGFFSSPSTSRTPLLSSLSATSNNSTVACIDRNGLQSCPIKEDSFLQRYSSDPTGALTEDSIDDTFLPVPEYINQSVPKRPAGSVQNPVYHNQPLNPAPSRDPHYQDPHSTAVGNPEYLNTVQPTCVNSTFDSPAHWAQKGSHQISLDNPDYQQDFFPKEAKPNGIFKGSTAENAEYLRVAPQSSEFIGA
test_protocol: EGFR target modulation in HEKn (EGFR-WT) cell line (phospho-EGFR Y1173 ELISA)
run_conditions: value outside parentheses
Reported values of IC50 for individual entries

- smi: "C=CC(=O)N1CCC[C@@H](n2c(NC(=O)c3cccc(C(F)(F)F)c3)nc3cc(CN4CCCCC4)ccc32)C1"
  IC50: "> 10 µM"
- smi: "C/C=C/C(=O)N1CCCC[C@@H](n2c(NC(=O)c3cc(C)nc(C)c3)nc3cc(CN4CC[C@H](OC)C4)ccc32)C1"
  IC50: "> 10 µM"
- smi: "C=CC(=O)N1CCC[C@@H](n2c(NC(=O)c3cccc(C(F)(F)F)c3)nc3cc(C)ccc32)C1"
  IC50: "> 10 µM"

###

assayed_system: EGFR(L858R/T790M) (Homo sapiens, UniProt P00533, L858R/T790M)
Construct: purchased from Carna (GST-a.a. 669-1210)
test_protocol: EGFR biochemical assay (HTRF), IC50 determinations
run_conditions: EGFR (L858R/T790M) with no pre-incubation; read-out: IC50 (μM) Column A
experimental_endpoint: log10 IC50 (log10 of the value in µM)

- compound: "C=CC(=O)N1CCCC[C@@H](n2c(NC(=O)c3cccc(C(F)(F)F)c3)nc3cccc(C(F)(F)F)c32)C1 [Example 17-12]"
  assayed_system: "EGFR(L858R/T790M) (Homo sapiens, UniProt P00533, L858R/T790M)"
  data_value: -1.19
- compound: "Cc1cccc2nc(NC(=O)c3cc(F)ccc3F)n(C3CCCCN(C(=O)/C=C/CN(C)C)C3)c12 (centres unmarked) [Example 17-29]"
  assayed_system: "EGFR(L858R/T790M) (Homo sapiens, UniProt P00533, L858R/T790M)"
  data_value: -1.70
- compound: "C=CC(=O)N1CCCCC(n2c(NC(=O)c3ccccc3)nc3cccc(C(=O)NCC(=O)O)c32)C1 (centres unmarked) [Example 17-137]"
  assayed_system: "EGFR(L858R/T790M) (Homo sapiens, UniProt P00533, L858R/T790M)"
  data_value: 0.19
- compound: "C=C(CN1CCCC1)C(=O)N1CCCC[C@@H](n2c(NC(=O)c3ccnnc3)nc3cccc(C)c32)C1 [Example 17-91]"
  assayed_system: "EGFR(L858R/T790M) (Homo sapiens, UniProt P00533, L858R/T790M)"
  data_value: -0.70
- compound: "C=CC(=O)N1CCCC[C@@H](n2c(NC(=O)c3cc(C)nc(C)c3)nc3cc(CN4CC[C@H](F)C4)cc(C)c32)C1 [Example 17-158]"
  assayed_system: "EGFR(L858R/T790M) (Homo sapiens, UniProt P00533, L858R/T790M)"
  data_value: -2.70
- compound: "C=CC(=O)N1CCCCC(n2c(NC(=O)c3cccc(C(F)(F)F)c3)nc3cccc(C)c32)C1 (centres unmarked) [Example 17-10]"
  assayed_system: "EGFR(L858R/T790M) (Homo sapiens, UniProt P00533, L858R/T790M)"
  data_value: -1.85
- compound: "C=CC(=O)N1CCC[C@@H](n2c(NC(=O)c3cccc(C(F)(F)F)c3)nc3cc(COCC)ccc32)C1 [Example 17-123]"
  assayed_system: "EGFR(L858R/T790M) (Homo sapiens, UniProt P00533, L858R/T790M)"
  data_value: -0.94
- compound: "COc1ccc2nc(NC(=O)c3ccnnc3)n([C@@H]3CCCCN(C(=O)/C=C/CN(C)C)C3)c2c1Cl [Example 17-2]"
  assayed_system: "EGFR(L858R/T790M) (Homo sapiens, UniProt P00533, L858R/T790M)"
  data_value: -1.74
- compound: "CN(C)C/C=C/C(=O)N1CCCCC(n2c(NC(=O)c3cccc(C(F)(F)F)c3)nc3cc(CO)cc(C#N)c32)C1 (centres unmarked) [Example 17-116]"
  assayed_system: "EGFR(L858R/T790M) (Homo sapiens, UniProt P00533, L858R/T790M)"
  data_value: -1.96
- compound: "C=CC(=O)N1CCCCC(n2c(NC(=O)c3cccc(C(F)(F)F)c3)nc3cccc(C(=O)O)c32)C1 (centres unmarked) [Example 20]"
  assayed_system: "EGFR(L858R/T790M) (Homo sapiens, UniProt P00533, L858R/T790M)"
  data_value: -0.96
- compound: "C=CC(=O)N1CCCC[C@@H](n2c(NC(=O)c3ccccc3)nc3cc(COCCOC)cc(C)c32)C1 [Example 17-128]"
  assayed_system: "EGFR(L858R/T790M) (Homo sapiens, UniProt P00533, L858R/T790M)"
  data_value: -2.15
- compound: "Cc1cccc2nc(NC(=O)c3cnccn3)n(C3CCCCN(C(=O)/C=C/CN(C)C)C3)c12 (centres unmarked) [Example 17-38]"
  assayed_system: "EGFR(L858R/T790M) (Homo sapiens, UniProt P00533, L858R/T790M)"
  data_value: -0.93
- compound: "C=CC(=O)N1CCC[C@@H](n2c(NC(=O)c3cccc(C(F)(F)F)c3)nc3cc(CN(C)C(C)=O)ccc32)C1 [Example 17-119]"
  assayed_system: "EGFR(L858R/T790M) (Homo sapiens, UniProt P00533, L858R/T790M)"
  data_value: -1.21
- compound: "Cc1cccc2nc(NC(=O)c3ccnc(OC(F)(F)F)c3)n([C@@H]3CCCCN(C(=O)/C=C/CN(C)C)C3)c12 [Example 17-102]"
  assayed_system: "EGFR(L858R/T790M) (Homo sapiens, UniProt P00533, L858R/T790M)"
  data_value: -2.70
- compound: "Cc1nccc(C(=O)Nc2nc3cccc(C)c3n2C2CCCCN(C(=O)/C=C/CN(C)C)C2)n1 (centres unmarked) [Example 17-54]"
  assayed_system: "EGFR(L858R/T790M) (Homo sapiens, UniProt P00533, L858R/T790M)"
  data_value: -1.05
- compound: "C=CC(=O)N1CCCC[C@@H](n2c(NC(=O)c3ccnc(C)c3)nc3cc(CN4CCC4)cc(C)c32)C1 [Example 17-145]"
  assayed_system: "EGFR(L858R/T790M) (Homo sapiens, UniProt P00533, L858R/T790M)"
  data_value: -3.00
- compound: "Cc1ncc(C(=O)Nc2nc3cccc(C)c3n2C2CCCCN(C(=O)/C=C/CN(C)C)C2)s1 (single isomer, unassigned) [Example 21-8B]"
  assayed_system: "EGFR(L858R/T790M) (Homo sapiens, UniProt P00533, L858R/T790M)"
  data_value: -2.22
- compound: "C=CC(=O)N1CCCC(n2c(NC(=O)c3cccc(C(F)(F)F)c3)nc3c2CN(S(C)(=O)=O)CC3)C1 (centres unmarked) [Example 17-171]"
  assayed_system: "EGFR(L858R/T790M) (Homo sapiens, UniProt P00533, L858R/T790M)"
  data_value: 0.38
- compound: "C=CC(=O)N1CCCC(n2c(NC(=O)c3cccc(C(F)(F)F)c3)nc3c2CCN(C(=O)OC)C3)C1 (centres unmarked) [Example 17-167]"
  assayed_system: "EGFR(L858R/T790M) (Homo sapiens, UniProt P00533, L858R/T790M)"
  data_value: 0.42
- compound: "C=CC(=O)N1CCCCC(n2c(NC(=O)c3cccc(C(F)(F)F)c3)nc3cccc(CN4CCCC4)c32)C1 (centres unmarked) [Example 11]"
  assayed_system: "EGFR(L858R/T790M) (Homo sapiens, UniProt P00533, L858R/T790M)"
  data_value: -1.92
- compound: "Cc1cc(C(=O)Nc2nc3cccc(C)c3n2[C@@H]2CCCCN(C(=O)/C=C/CN(C)C)C2)ccn1 [Example 7]"
  assayed_system: "EGFR(L858R/T790M) (Homo sapiens, UniProt P00533, L858R/T790M)"
  data_value: -2.70
- compound: "Cc1noc(-c2cccc3nc(NC(=O)c4ccccc4)n(C4COCCN(C(=O)/C=C/CN(C)C)C4)c23)n1 (centres unmarked) [Example 17-142]"
  assayed_system: "EGFR(L858R/T790M) (Homo sapiens, UniProt P00533, L858R/T790M)"
  data_value: -0.49
- compound: "C=CC(=O)N1CCOCC(n2c(NC(=O)c3cccc(C(F)(F)F)c3)nc3cccc(C)c32)C1 (single isomer, unassigned) [Example 21-7A]"
  assayed_system: "EGFR(L858R/T790M) (Homo sapiens, UniProt P00533, L858R/T790M)"
  data_value: 0.30
- compound: "CN(C)C/C=C/C(=O)N1CCCCC(n2c(NC(=O)c3ccnc(P(C)(C)=O)c3)nc3cccc(Cl)c32)C1 (single isomer, unassigned) [Example 21-10B]"
  assayed_system: "EGFR(L858R/T790M) (Homo sapiens, UniProt P00533, L858R/T790M)"
  data_value: -0.65
- compound: "Cc1cccc2nc(NC(=O)c3cn4ccsc4n3)n(C3CCCCN(C(=O)/C=C/CN(C)C)C3)c12 (centres unmarked) [Example 17-51]"
  assayed_system: "EGFR(L858R/T790M) (Homo sapiens, UniProt P00533, L858R/T790M)"
  data_value: 0.29
